Reported values of growth for individual entries
- Tested on: HS 578T breast
- testSummary: NCI-60 one-dose screen, 48 h (100 = growth as untreated, 0 = no growth, -100 = all killed)
- recordedConditions: 10 µM
The panel holds about 83,000 compounds, 20% with a hit somewhere; the sample as a whole holds those more often.

{"columns": ["molecule", "units", "growth"],
 "data": [
  ["CCCCCCCCCCCCCC(=O)Oc1ccc[nH]c1=O", "%", 98.1],
  ["O=C(Nc1cc(-c2ccccc2)[nH]n1)c1ccc(Cl)cc1", "%", 80.6],
  ["O=C(Nc1ccccc1)OCCc1ccccc1", "%", 120],
  ["O=C(Nc1ccccc1C(=O)NCC1CC1)c1cccs1", "%", 114],
  ["CCCC(=O)c1cc(C)ccc1OC", "%", 118],
  ["O=C1c2ccccc2C(=O)c2c1ccc(C(=O)O)c2[N+](=O)[O-]", "%", 82.5],
  ["Nc1ccccc1SC(CC(=O)c1ccccc1)c1c(Cl)cccc1Cl (configuration not stated)", "%", 84.9],
  ["c1ccc(CN2COc3c(ccc4c3OCN(Cc3ccccc3)C4)C2)cc1", "%", 53.6],
  ["COC(=O)C(C)Oc1ccc(OC#N)cc1 (configuration not stated)", "%", 90.1],
  ["O=C(N/N=C/c1ccccc1O)Nc1nn[nH]n1", "%", 99],
  ["O=[N+]([O-])c1ccc(O)c(S(=O)(=O)O)c1", "%", 103],
  ["Cc1cc(=O)[nH]c(NN=C2CCCC2)n1", "%", 121],
  ["N=c1c(C(=O)OCc2ccccc2)ncc(CCl)n1O", "%", 114],
  ["CC(=O)NC(N)=S", "%", 115],
  ["Oc1ccc2c(c1)OCC1(O)Cc3cc(O)c(O)cc3C21 (configuration not stated)", "%", 102],
  ["CCOC(=O)CCCC(=O)OCC", "%", 96.2],
  ["Cn1cnc2nc(Cl)nc(Cl)c21", "%", 72.4]
]}

----------
- System: SF-295 CNS
- testSummary: NCI-60 one-dose screen, 48 h (100 = growth as untreated, 0 = no growth, -100 = all killed)
- recordedConditions: 10 µM
- Experimental: Cells are grown in 96 well plates and exposed to the test compound for 48 hours. Compounds are tested at a single concentration, which is 10^-5 M for most compounds. The reported endpoint is percent growth (GI% or GIPRCNT), where numbers from 0 - 100% represent growth inhibition, and numbers from -100% - 0 represent cell death. For example, a value of 40 represents 60% growth inhibition. A value of 0 means no net growth occurred over the course of the experiment. […]
About 83,000 compounds went through this panel and 20% of them were active in at least one assay; those are over-represented in the sample as a whole.
assayEndpoint: growth (%)

{"columns": ["compound", "recordedMeasurement"],
 "data": [
  ["CCOC(=O)C1=C(C)NC(=O)NC1c1cccs1 (configuration not stated)", 112],
  ["Oc1ccccc1-c1nnco1", 112],
  ["C=CCCCCCCCCCOC(C)=O", 105],
  ["CC(C)=C(NC(=O)c1ccccc1)C(=O)O", 116],
  ["C#Cc1cccc(NC(=O)c2ccc(Cl)cc2Cl)c1", 107],
  ["CCN1C(=O)/C(=C/C=C/N(C)c2ccccc2)SC1=S", 54.8],
  ["CNC(=S)NC(C)(C)C", 104],
  ["CCOc1ccc(I)cc1", 113],
  ["Sc1ccc(Nc2c3ccccc3nc3ccccc23)cc1", 26.5],
  ["COCCCNC(=O)c1nnn2c1nc(N)c1cc(Cl)ccc12", 91.7],
  ["CC1(c2ccccc2)NC(=O)NC1=O (configuration not stated)", 119],
  ["O=[N+]([O-])c1ccc(-c2noc(-c3cccs3)n2)cc1", 72.9],
  ["O=[N+]([O-])c1ccccc1S(=O)c1ccccc1[N+](=O)[O-]", 79],
  ["C#C[C@H]1CCCCCC1O (some centres not stated)", 108],
  ["NCCC(=O)c1ccc(Cl)cc1", 105],
  ["CCC/C=C(/C(C)=O)C(=O)OCC", 282],
  ["OC1CCCc2ccccc21 (configuration not stated)", 93.2],
  ["CCOC(=O)c1ccc(NC(=S)P(=O)(c2ccccc2)c2ccccc2)cc1", 104],
  ["Cc1ccncc1C(N)=O", 120],
  ["NC(=S)N/N=C/c1ccc(N)cc1", 102],
  ["S=C1NCc2cncnc2N1", 94.2],
  ["COc1ccccc1NC(=O)C1=C(C)NC(C)=C(C(=O)Nc2ccccc2OC)C1c1cccc([N+](=O)[O-])c1", 49.5]
]}
